Test system: Enterococcus sp.
Assay: in vitro antibacterial evaluation, MIC by broth dilution
Format: cell-based
Settings: broth dilution, 18 hours at 35° C.; strain GC 4553
Text: Methods for in vitro Antibacterial Evaluation (Table 1) […]
MIC Enterococcus faecalis (GC 4553) values, listed per item
quantity: MIC Enterococcus faecalis (GC 4553)

| compound | quantity | measured result |
| --- | --- | --- |
| CC(c1ccccc1)C1NC(=O)CNC(=O)C(CO)NC(=O)C(C(O)C2CNC(=N)N2C2OC(CO)C(O)C(O)C2O)NC(=O)C(C(O)C2CNC(=N)N2)NC(=O)C(Cc2ccc(OC3OC(CO)C(OC4OC(COCC=C(c5ccccc5)c5ccccc5)C(O)C(O)C4O)C(O)C3O)cc2)NC1=O (stereo not shown) | MIC Enterococcus faecalis (GC 4553) | 4 µg/mL |
| CC(c1ccccc1)C1NC(=O)CNC(=O)C(CO)NC(=O)C(C(O)C2CNC(=N)N2C2OC(CO)C(O)C(O)C2O)NC(=O)C(C(O)C2CNC(=N)N2)NC(=O)C(Cc2ccc(OC3OC(CO)C(OC4OC5COC(CC67CC8CC(CC(C8)C6)C7)OC5C(O)C4O)C(O)C3O)cc2)NC1=O (stereo not shown) | MIC Enterococcus faecalis (GC 4553) | 2 µg/mL |
| CC(c1ccccc1)C1NC(=O)CNC(=O)C(CO)NC(=O)C(C(O)C2CNC(=N)N2C2OC(CO)C(O)C(O)C2O)NC(=O)C(C(O)C2CNC(=N)N2)NC(=O)C(Cc2ccc(OC3OC(CO)C(OC4OC(CO)C(OCC=C(c5ccccc5)c5ccccc5)C(O)C4O)C(O)C3O)cc2)NC1=O (stereo not shown) [Example 241a] | MIC Enterococcus faecalis (GC 4553) | 4 µg/mL |
| Cc1ccc(CC2OCC3OC(OC4C(CO)OC(Oc5ccc(CC6NC(=O)C(C(C)c7ccccc7)NC(=O)CNC(=O)C(CO)NC(=O)C(C(O)C7CNC(=N)N7C7OC(CO)C(O)C(O)C7O)NC(=O)C(C(O)C7CNC(=N)N7)NC6=O)cc5)C(O)C4O)C(O)C(O)C3O2)cc1 (stereo not shown) | MIC Enterococcus faecalis (GC 4553) | 4 µg/mL |

----------
test system: Enterococcus sp.; test: in vitro antibacterial evaluation, MIC by broth dilution; assay type: cell-based; conditions: broth dilution, 18 hours at 35° C.
quantity: MIC Enterococcus faecalis (GC 2691) (µg/mL)

| molecule | quantity | units | comparator | measured result |
| --- | --- | --- | --- | --- |
| Cc1ccc(COCC2OC(OC3C(CO)OC(Oc4ccc(CC5NC(=O)C(C(C)c6ccccc6)NC(=O)CNC(=O)C(CO)NC(=O)C(C(O)C6CNC(=N)N6C6OC(CO)C(O)C(O)C6O)NC(=O)C(C(O)C6CNC(=N)N6)NC5=O)cc4)C(O)C3O)C(O)C(O)C2O)cc1 (stereo not shown) | MIC Enterococcus faecalis (GC 2691) | µg/mL | = | 8 |
| CCOc1cc(COCC2OC(OC3C(CO)OC(Oc4ccc(CC5NC(=O)C(C(C)c6ccccc6)NC(=O)CNC(=O)C(CO)NC(=O)C(C(O)C6CNC(=N)N6C6OC(CO)C(O)C(O)C6O)NC(=O)C(C(O)C6CNC(=N)N6)NC5=O)cc4)C(O)C3O)C(O)C(O)C2O)ccc1OC (stereo not shown) | MIC Enterococcus faecalis (GC 2691) | µg/mL | = | 16 |
| CC(c1ccccc1)C1NC(=O)CNC(=O)C(CO)NC(=O)C(C(O)C2CNC(=N)N2C2OC(CO)C(O)C(O)C2O)NC(=O)C(C(O)C2CNC(=N)N2)NC(=O)C(Cc2ccc(OC3OC(CO)C(OC4OC5COC6(CC7CCC6(C)C7(C)C)OC5C(O)C4O)C(O)C3O)cc2)NC1=O (stereo not shown) | MIC Enterococcus faecalis (GC 2691) | µg/mL | = | 2 |
| CC(C1CCCCC1)C1NC(=O)CNC(=O)C(CO)NC(=O)C(C(O)C2CNC(=N)N2C2OC(CO)C(O)C(O)C2O)NC(=O)C(C(O)C2CNC(=N)N2)NC(=O)C(C[C@H]2CC[C@H](O)CC2)NC1=O (stereo partly shown) [Example 54a] | MIC Enterococcus faecalis (GC 2691) | µg/mL | > | 128 |
